The values you see were collected from patent US20240261225A1.

Test: Gefitinib solubility in methanol and methanol:water mixtures (saturated solutions, HPLC)
Type: physicochemical
Details: methanol, organic solvent or mixture, thermodynamic from solid; MeOH:H2O 100:0 (w/w), 20° C.; read-out: Solubility without formic acid
observedProperty: solubility at 24 h (mg/mL)
Just the number in mg/mL, nothing appended.

Task: Can you share its solubility at 24 h? I mean this molecule: `COc1cc2ncnc(Nc3ccc(F)c(Cl)c3)c2cc1OCCCN1CCOCC1`
Output: 7

---

Test: physchem
Details: 21 °C, organic solvent or mixture, thermodynamic from solid, Solubility with formic acid
observedProperty: solubility

Task: Can you share its solubility? I mean this compound: `COc1cc2ncnc(Nc3ccc(F)c(Cl)c3)c2cc1OCCCN1CCOCC1`
Output: ≥ 60 mg/mL
